The measured values listed here are drawn from ChEMBL document CHEMBL3580535.

# key: entry, value: Activity
tested on: Mus musculus; experiment: Toxicity in BALB/c nude mouse assessed as body weight at 0.023 mmol/kg, ip administered every 2 days for 3 times measured on day 6 (reference value: 17.5 to 17.9 gms); assay type: organism-based; conditions: in vivo

The reported Activity value, Mus musculus, for CC[C@@]1(O)C(=O)OCc2c1cc1n(c2=O)Cc2cc3c(CN(C)C)c(O)ccc3nc2-1 [TOPOTECAN] reads 13.6 g

The reported Activity value, Mus musculus, for CC[C@@]1(O)C(=O)OCc2c1cc1n(c2=O)Cc2cc3ccccc3nc2-1 [CAMPTOTHECIN] reads 11.3 g

The reported Activity value, Mus musculus, for CC[C@@]1(OC(=O)CCC(=O)O[C@@H]2O[C@@H]3O[C@@]4(C)CC[C@H]5[C@H](C)CC[C@@H]([C@H]2C)[C@@]35OO4)C(=O)OCc2c1cc1n(c2=O)Cc2cc3c(CN(C)C)c(O)ccc3nc2-1 reads 15.5 g

Shift focus to the following entry.
The reported Activity value, Mus musculus, for C[C@H]1[C@H](OC(=O)CCC(=O)O)O[C@@H]2O[C@@]3(C)CC[C@H]4[C@H](C)CC[C@@H]1[C@@]24OO3 [ARTESUNATE] reads 16.1 g
